# test.details: Pharmacokinetic profile of Solifenacin salts in fasted male Wistar rats
# Format: in vivo
# condition: male, Wistar, rat, plasma, 30 mg/kg, Table 3b; fasted male Wistar rats; dose 30 mg/kg; mean; read-out: Cmax
Structures can show the parent of a compound that is named as a salt.
property.label: Cmax (ng/mL)
Give bare numbers, in ng/mL.

Q: Return Cmax for the following compound: O=C(O[C@H]1CN2CCC1CC2)N1CCc2ccccc2[C@@H]1c1ccccc1 [Solifenacin Hydrobromide, Solifenacin hydrobromide]
Ans: 14.1

* * *

# test.details: Pharmacokinetic profile of Solifenacin salts in fasted male Wistar rats
# Type: in vivo
# condition: male, Wistar, rat, plasma, 30 mg/kg, Table 3a; fasted male Wistar rats; dose 30 mg/kg; mean; read-out: Tmax
Counter-ions that a name gives are not always drawn.
property.label: Tmax (min)
Answers are plain numbers, in min.

Q: Give recorded Tmax. O=C(O[C@H]1CN2CCC1CC2)N1CCc2ccccc2[C@@H]1c1ccccc1 [Solifenacin Hydrochloride]
Ans: 36

* * *

# test.details: Pharmacokinetic profile of Solifenacin salts in fasted male Wistar rats
# Assay type: in vivo
# condition: male, Wistar, rat, plasma, 30 mg/kg, Table 3b; fasted male Wistar rats; dose 30 mg/kg; mean; read-out: AUC (0-inf)
Where a name gives a salt, the structure may show the parent alone.
property.label: AUC (0-inf)

Q: # return recorded AUC (0-inf) for input O=C(O[C@H]1CN2CCC1CC2)N1CCc2ccccc2[C@@H]1c1ccccc1 [Solifenacin Hydrobromide, Solifenacin hydrobromide]
Ans: 74 ng·h/mL

* * *

# test.details: Pharmacokinetic profile of Solifenacin salts in fasted male Wistar rats
# Type: in vivo
# condition: rat, plasma; Table 3a; fasted male Wistar rats; dose 30 mg/kg; mean; read-out: Vz
Counter-ions that a name gives are not always drawn.
property.label: Vd (L)
Answers are plain numbers, in L.

Q: For the compound O=C(O[C@H]1CN2CCC1CC2)N1CCc2ccccc2[C@@H]1c1ccccc1 [Solifenacin Hydrochloride] , give its measured Vd value.
Ans: 1530
